# test_details: qHTS of pediatric cancer cell lines to identify multiple opportunities for drug repurposing: Confirmatory screen for Rh41 cells (AID 1347123);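 note: 48 h compound exposure; nearly all actives have a fitted effect of over 60% in size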
# condition: Rh41 rhabdomyosarcoma cells, viability/cytotoxicity qHTS; series mostly up to 45.9 µM
Inconclusive results are not listed. Activity calls are given as the source filed them. Calls come from the whole dose curve; as a rule, active = well fitted cell-killing curve with a large enough effect; inconclusive = small, poorly fitted or top-dose-only effect; inactive = no such curve, though single readings can be large or run the other way.
Pick one and only one: active, inactive

Past entries and their recorded results:
Answer briefly: the call reported for NC(=O)CC[C@@H]1NC(=O)[C@H](Cc2ccccc2)NC(=O)[C@H](Cc2ccc(O)cc2)NC(=O)CCSSC[C@@H](C(=O)N2CCC[C@H]2C(=O)N[C@@H](CCCN=C(N)N)C(=O)NCC(N)=O)NC(=O)[C@H](CC(N)=O)NC1=O in this assay.
inactive

For COc1c(C)c2c(c(O)c1C/C=C(\C)CCC(=O)O)C(=O)OC2 , what call appears in the results of this test?
active

Outcome? C[C@]12CCC(=O)C=C1CC[C@H]1[C@@H]3CC[C@](O)(C(=O)CO)[C@@]3(C)C[C@H](O)[C@@]12F
inactive

More entries:
What was the test verdict on CC1(C)O[C@@H]2C[C@H]3[C@@H]4C[C@H](F)C5=CC(=O)CC[C@]5(C)[C@H]4[C@@H](O)C[C@]3(C)[C@]2(C(=O)CO)O1 ?
inactive

I'd appreciate the recorded outcome for CC(=O)Oc1ccc2c(c1)CC[C@@H]1[C@@H]2CC[C@]2(C)[C@@H](O)CC[C@@H]12 from this test.
inactive

Recorded test call requested for CCOc1ccc2nc3cc(N)ccc3c(N)c2c1
active

How was O=C(CCCN1CCC(O)(c2ccc(Br)cc2)CC1)c1ccc(F)cc1 classified in this test?
active
